Test system: RXF 393 renal
Assay: NCI tumour cell line growth inhibition, 48 h; in the data active means GI50 below about 0.43 µM; inactive means the rest
Would you mind answering with one of these outcomes? active, inactive

Previously resolved entries follow.
- Compound: "CN(C)CCNC(=O)c1cc2c3cc(Cl)ccc3[nH]c2c2ncccc12"
  Group: "inactive"
- Compound: "Cc1c(Cl)cccc1C(=O)Nc1nc2c(s1)CN(C(=O)Nc1cccc(C(F)(F)F)c1)CC2"
  Group: "active"
- Compound: "CC(C)=CC[C@@H]1CC2(CC=C(C)C)C(=O)C(OC3(C(=O)c4ccccc4)C(=O)C4(CC=C(C)C)C[C@@H](CC=C(C)C)C(C)(C)C(CC=C(C)C)(C4=O)C3=O)(C(=O)c3ccccc3)C(=O)C(CC=C(C)C)(C2=O)C1(C)C (stereo not given in full)"
  Group: "inactive"

Exam item: Identify the outcome logged in this assay for the compound shown: CCN(Cc1ccc(OC)cc1)c1ccc(CO)c(Cl)c1
Marked response: inactive

Exam item: // repeat for CCOC(=O)c1noc2c1CCc1c-2cn(Cc2ccc(OC)cc2)c1-c1cc(OC)c(OC)c(OC)c1 and report
Marked response: inactive

Exam item: // repeat for Nc1ccc(/C=C/c2ccc3ncccc3c2)cc1 and report
Marked response: inactive

* * *

Test system: T-47D breast
Experiment: NCI tumour cell line growth inhibition, 48 h
The entries below are paired with their reported TGI.

Exam item: Return reported TGI; argument: CN(C)c1cccc(-c2cc(=S)c3cc4c(cc3[nH]2)OCO4)c1
Marked response: > 100 µM

Exam item: // repeat for Cn1cc(C2=C(c3ccsc3)C(=O)NC2=O)c2ccccc21 and report
Marked response: > 25 µM

Exam item: // repeat for CC(=O)c1ccc(Br)cc1NC1=CC(=O)c2ncccc2C1=O and report
Marked response: 9.37 µM

Exam item: // repeat for O=P1(NCCCl)OCCCN1CCCl (stereo unspecified) and report
Marked response: > 500 µM

Exam item: // repeat for COC(=O)NC(=O)NC(Cc1ccccc1)NC(=O)OCc1ccccc1 (stereo unspecified) and report
Marked response: > 100 µM

Exam item: // repeat for O=C(N/N=C/c1ccc(Cl)cc1)c1ccc(NC(=O)c2ccccn2)cc1 and report
Marked response: > 100 µM

* * *

The entries below are paired with their reported TGI.
System: OVCAR-3 ovarian
Assay: NCI tumour cell line growth inhibition, 48 h

- Compound: "CC(C)(C)[Si](C)(C)OCC1OC(n2cnc3c(N)ncnc32)C2OC(=S)OC12 (centres undefined)"
  Experimental readout: "TGI"
  Test result: "91.9 µM"
- Compound: "COc1cc2c(c3oc(-c4ccc(O)cc4)c(O)c(=O)c13)CCC(C)(C)O2"
  Experimental readout: "TGI"
  Test result: "27.4 µM"
- Compound: "Cc1cc(N(CCC#N)CCC#N)ccc1/C=C(\\NC(=O)/C=C/c1ccccc1)C(=O)N=[N+]=[N-]"
  Experimental readout: "TGI"
  Test result: "> 100 µM"
- Compound: "CC(=O)OCC1C(=O)OCC1C(=O)N1Cc2cc3ccccc3nc2C1 (centres undefined)"
  Experimental readout: "TGI"
  Test result: "6.14 µM"
- Compound: "CC(C)(C)C(=O)/C=C(\\OB(F)F)C(C)(C)C"
  Experimental readout: "TGI"
  Test result: "> 100 µM"
- Compound: "CC(C)[Si](OC12CCC(CC1O)CC2CO)(C(C)C)C(C)C (centres undefined)"
  Experimental readout: "TGI"
  Test result: "27.6 µM"
- Compound: "Cn1ncnc1[C@@H]1c2n[nH]c(=O)c3cc(F)cc(c23)N[C@H]1c1ccc(F)cc1"
  Experimental readout: "TGI"
  Test result: "> 100 µM"
- Compound: "O=C1Cc2c(-c3cccs3)cc(-c3ccccc3)nc2-c2ccccc2N1"
  Experimental readout: "TGI"
  Test result: "> 100 µM"

Exam item: Give recorded TGI with OVCAR-3 ovarian for the following compound: CC(CN1NC12CCCC2)N1NC12CCCC2 (centres undefined)
Marked response: > 100 µM

Exam item: // repeat for Cc1cccc(Nc2nc3ccccc3nc2NS(=O)(=O)c2ccc(N)cc2)c1 and report
Marked response: > 100 µM

Exam item: // repeat for CC1(C)N=C(N)N=C(N)N1c1ccc(OCCCNC(=O)Nc2ccc(S(=O)(=O)F)cc2)c(Cl)c1 and report
Marked response: > 100 µM

Exam item: // repeat for Nc1c(C(=O)Nc2cccc(Cl)c2)sc2nc3c(cc12)C(=O)CCC3 and report
Marked response: > 100 µM
